METHOD SUMMARY: Primary qHTS for delayed death inhibitors of the malarial parasite plastid, 96 hour incubation
CONDITION SET: P. falciparum luciferase reporter growth; series mostly up to 28.7 µM
Description: The goal of this screen is to discover new antimalarial compounds that act by inhibiting the development of the apicoplast in the malarial parasite Plasmodium falciparum. […] We have developed a cell-based assay that measures parasite growth based on the expression of an integrated copy of a firefly luciferase reporter. […] Growth inhibition is detected by a decrease in luciferase activity. […]
In all, about 320,000 compounds went through this assay and about 22,000 (6.9%) were called active. Roughly 27% stayed inconclusive and do not appear here. Calls follow the shape of the dose curve; as a rule, active = well fitted inhibition curve with a large enough effect; inconclusive = small, poorly fitted or top-dose-only effect, or another doubt; inactive = no such curve, though single readings can be large or run the other way. The list comes from a sample in which actives are over-represented; it also holds close analogues and randomly drawn compounds.
Please reply with one of these outcomes: yes for active, no for inactive

[
  {
    "MOLECULE": "O=C(NCc1ccco1)c1ccc([N+](=O)[O-])cc1Cl",
    "CAT": "no"
  }
]

**Q:** # outcome recorded in this test, key = "N#Cc1cccc(CN2CCC(=O)N([C@H](CO)c3ccccc3)CC2)c1"
**A:** no

**Q:** How did this test come out for "CCOC(=O)c1nnn2c1nc(N1CCN(c3ccccc3)CC1)c1ccccc12" ?
**A:** yes

**Q:** What did this assay record as the result for CCOc1ccc(CN2CCNC(=O)C2CC(=O)NCCCC2CCCC2)cc1 (stereo not drawn) ?
**A:** yes

**Q:** Answer briefly: the call reported for "COc1ccc2c(c1OC)C(=O)N(c1ccc(O)cc1)C2" in this assay.
**A:** no

**Q:** For "CCc1noc(C)c1C(=O)Nc1nc2ccc(OC)cc2s1" , what call appears in the results of this test?
**A:** no

**Q:** Record request — test call for "Cc1c(CNCCc2ccccc2)c(C(=O)O)c(C)n1-c1ccccc1"
**A:** no

**Q:** // return assay outcome for C[C@H](NC(=O)C1CC(=O)N(c2ccc3c(c2)OCCO3)C1)C(=O)N1CCC(C(=O)O)CC1 (stereo partly drawn)
**A:** no

**Q:** Which result was noted for this molecule in the test: "CCOC(=O)c1nnn2c3ccccc3c(=O)n(C)c12"
**A:** no

**Q:** Please state the recorded outcome for this molecule: "COc1ccc2ccn(C)c2c1"
**A:** no

* * *

METHOD SUMMARY: Primary qHTS for delayed death inhibitors of the malarial parasite plastid, 96 hour incubation; as to activity change, negative = inhibition: % is scaled to controls: 0 for no effect and ±100 for the full control effect
CONDITION SET: P. falciparum luciferase reporter growth; series mostly up to 28.7 µM
Hit rate of the full screen: of about 320,000 compounds, about 22,000 (6.9%) were called active. Not shown: some 27% with an inconclusive outcome. For the sample, actives were picked, then their nearest neighbours and some compounds at random.
This listing pairs molecules with measured activity change, negative = inhibition.

[
  {
    "MOLECULE": "O=C(Nc1cccc(Cl)c1N1CCOCC1)c1ccc2c(c1)OCCO2",
    "ENDPOINT NAME": "activity change, negative = inhibition",
    "MEASURED VALUE": "47.9% [at 5.75 µM] (inactive)"
  }
]

**Q:** Indicate its recorded activity change, negative = inhibition; the molecule in question is CCOc1ccc(C(=O)N(Cc2ccc(N(C)C)cc2)C2CCS(=O)(=O)C2)cc1 (stereo unspecified)
**A:** 17.3% [at 5.75 µM] (inactive)

Measured values drawn from PubChem BioAssay AID504834 for this set.
